- runDescription: label from the status in PepcDB records

{"sequence": "MISNKRRPKIKIWNKEQMALYLKAIKKDRLYAAFVTDSKSGLRKSELLALRWSDIDFSTGLTKIERGWVRSPKGTLYLSDLKSENSERTLVFSTDLLKVLLEHKSRQDEEKKTAGKNYIDNGLVFCREDGSYINPSTFTRRHYDLTAKAKLPRISVHALRHSISTALLESGKVDLKQIQEMLGHKDISTTGNYYTDVLERMKQKTSELIDNLIQTELEHHHHHH", "protein production": "failed"}
{"sequence": "MATRQPLDATACSLMVGLCAIWGLQQVALKATASDIAPVLQIALRSGGAALLVGLLMCWRGERLGLGDGHWRPGLLVGGLFALEFLLVGEGLRYTTASHMAIFLYTAPIFAALGLHWLMPAERLKPAQWLGIGVAFGGIVVAFSGPAAAGHGGGSHVLLGDFLGVLGGVAWGATTVVVRCSRLASSPTTRTLQYQLLGAFVWLGLAALLTDQTSIHFTPLVVASLGFQVLVVSFASFLIWFTLLRRYPASRLGVLSFMTPLFGIGFGVWLLHEPLEPNFIFGALLVLAGIVMVSGYEWLRQRFKRNRESPVAPRSS", "protein production": "failed"}
